System: COR L88 complex tumor spheroid viability
Assay: Anticancer human tumor COR L88 cell line growth inhibition;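 note: compound exposure lasted 7 days before viability readout; percent of DMSO vehicle-treated spheroids = 100%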
Conditions: second compound 0.003 µM; first compound 10 µM; stronger effect = lower value
measured_property: viability, T/C

>  <compound>
COc1cc(C)[nH]c(=O)c1CN1CCc2c(Cl)cc(C(OC)C3COC3)c(Cl)c2C1=O (configuration not stated) + CC[C@@]1(O)C(=O)OCc2c1cc1n(c2=O)Cc2cc3c(CN(C)C)c(O)ccc3nc2-1

>  <measured_property>
viability, T/C

>  <observed_measurement>
75%

$$$$
>  <compound>
COc1cc(C)[nH]c(=O)c1CN1CCc2c(Cl)cc(C(OC)C3COC3)c(Cl)c2C1=O (configuration not stated) + COc1cc2c(cc1O)CCNC21CSC2c3c(OC(C)=O)c(C)c4c(c3C(COC1=O)N1C(O)C3Cc5cc(C)c(OC)c(O)c5C(C21)N3C)OCO4

>  <measured_property>
viability, T/C

>  <observed_measurement>
1.71%

$$$$
>  <compound>
[2H]c1nc(C)nc([2H])c1-c1cc(NC[C@@H](C)c2cccc3c(C(=O)NC)ccnc23)ncn1 + COc1cc2c(cc1O)CCNC21CSC2c3c(OC(C)=O)c(C)c4c(c3C(COC1=O)N1C(O)C3Cc5cc(C)c(OC)c(O)c5C(C21)N3C)OCO4

>  <measured_property>
viability, T/C

>  <observed_measurement>
1.03%

$$$$
>  <compound>
CC(C)n1c(=O)n(C)c2cnc3cc(F)c(-c4ccc(OCCCN5CCCCC5)nc4)cc3c21 + CC[C@@]1(O)C(=O)OCc2c1cc1n(c2=O)Cc2cc3c(CN(C)C)c(O)ccc3nc2-1

>  <measured_property>
viability, T/C

>  <observed_measurement>
26.9%

$$$$
>  <compound>
COc1ccc([C@@H](O)c2cc(-c3ncnc4cc(N5CCOCC5)ccc34)c(F)cc2Cl)nn1 + COc1cc2c(cc1O)CCNC21CSC2c3c(OC(C)=O)c(C)c4c(c3C(COC1=O)N1C(O)C3Cc5cc(C)c(OC)c(O)c5C(C21)N3C)OCO4

>  <measured_property>
viability, T/C

>  <observed_measurement>
2.01%

$$$$
>  <compound>
CC1COCCN1c1cc(-c2ccnn2C)c2ccnc(-c3ccn[nH]3)c2n1 (configuration not stated) + COc1cc2c(cc1O)CCNC21CSC2c3c(OC(C)=O)c(C)c4c(c3C(COC1=O)N1C(O)C3Cc5cc(C)c(OC)c(O)c5C(C21)N3C)OCO4

>  <measured_property>
viability, T/C

>  <observed_measurement>
0.58%

$$$$
>  <compound>
CC(C)n1c(=O)n(C)c2cnc3cc(F)c(-c4ccc(OCCCN5CCCCC5)nc4)cc3c21 + COc1cc2c(cc1O)CCNC21CSC2c3c(OC(C)=O)c(C)c4c(c3C(COC1=O)N1C(O)C3Cc5cc(C)c(OC)c(O)c5C(C21)N3C)OCO4

>  <measured_property>
viability, T/C

>  <observed_measurement>
0.99%

$$$$
>  <compound>
Cc1cc(C)c(CNC(=O)c2cc(-c3ccc(CN4CCOCC4)cc3)cc3c2cnn3C2CCCC2)c(=O)[nH]1 + COc1cc2c(cc1O)CCNC21CSC2c3c(OC(C)=O)c(C)c4c(c3C(COC1=O)N1C(O)C3Cc5cc(C)c(OC)c(O)c5C(C21)N3C)OCO4

>  <measured_property>
viability, T/C

>  <observed_measurement>
0.96%

$$$$
>  <compound>
[2H]c1nc(C)nc([2H])c1-c1cc(NC[C@@H](C)c2cccc3c(C(=O)NC)ccnc23)ncn1 + CC[C@@]1(O)C(=O)OCc2c1cc1n(c2=O)Cc2cc3c(CN(C)C)c(O)ccc3nc2-1

>  <measured_property>
viability, T/C

>  <observed_measurement>
100%

$$$$
>  <compound>
Cc1cc(C)c(CNC(=O)c2cc(-c3ccc(CN4CCOCC4)cc3)cc3c2cnn3C2CCCC2)c(=O)[nH]1 + CC[C@@]1(O)C(=O)OCc2c1cc1n(c2=O)Cc2cc3c(CN(C)C)c(O)ccc3nc2-1

>  <measured_property>
viability, T/C

>  <observed_measurement>
45.5%

$$$$
>  <compound>
COc1ccc([C@@H](O)c2cc(-c3ncnc4cc(N5CCOCC5)ccc34)c(F)cc2Cl)nn1 + CC[C@@]1(O)C(=O)OCc2c1cc1n(c2=O)Cc2cc3c(CN(C)C)c(O)ccc3nc2-1

>  <measured_property>
viability, T/C

>  <observed_measurement>
34.6%

$$$$
>  <compound>
CC1COCCN1c1cc(-c2ccnn2C)c2ccnc(-c3ccn[nH]3)c2n1 (configuration not stated) + CC[C@@]1(O)C(=O)OCc2c1cc1n(c2=O)Cc2cc3c(CN(C)C)c(O)ccc3nc2-1

>  <measured_property>
viability, T/C

>  <observed_measurement>
4.41%

$$$$

The values you see were collected from PubChem BioAssay AID1845201.
